Data origin, for the record: ChEMBL document CHEMBL1201862

This section presents compounds with their documented EC50 values.
Test: Luminescence Cell-Based Dose Response HTS to Identify Inhibitors of 5'UTR Stem-Loop Driven Prion Protein mRNA Translation in H4 Neuroglioblastoma Cells. [Related pubchem assays: 1827 (Project Summary), 1813 (Primary HTS)]
Type: functional
Active and inactive are the calls of the source.
Endpoint Name: EC50

>>> result("COC(=O)C1=CN(C2CCCCC2)C=C(C(=O)OC)C1c1ccc2c(c1)OCO2")
"57.5 µM (active)"
>>> result("CCN(CC)c1ccc2c(cc1=O)[C@@H](NC)CCc1cc(OC)c(OC)c(OC)c1-2")
"0.684 µM (active)"
>>> result("COc1ccc(-c2nc3c4c(ncn3n2)-c2ccccc2CC42CCCC2)cc1")
"> 120 µM (not active)"
>>> result("CC(=O)CSc1ccc(-c2nc3cc(C)c(C)cc3[nH]2)cn1")
"12.8 µM (active)"
>>> result("Clc1ccccc1Cn1nnc2c(N3CCOCC3)nc(C3CC3)nc21")
"> 120 µM (not active)"
>>> result("CC1=C([N+](=O)[O-])C(c2ccccc2)C2=C(O)c3ccccc3C2=N1 (stereo unspecified)")
"4.95 µM (active)"

---

Target: Ubiquitin-conjugating enzyme E2 N (Homo sapiens, UniProt P61088);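 further: Dose-response confirmation in a TR-FRET assay detecting UBC13-driven polyubiquitin chain formation, inhibition measured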
Sequence (P61088 whole entry): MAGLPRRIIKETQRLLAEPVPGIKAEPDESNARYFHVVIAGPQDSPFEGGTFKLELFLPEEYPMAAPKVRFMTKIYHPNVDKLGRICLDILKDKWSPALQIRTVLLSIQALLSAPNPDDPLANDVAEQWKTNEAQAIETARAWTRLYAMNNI
Format: functional
Counter-ions that a name gives are not always drawn. Calls of active or inactive are those of the source.
Labels: TRUE (active), FALSE (inactive)

>>> group("CC[C@@H](C)[C@@H]1CN([C@@H](CN2CCC[C@H]2CN2C(N)=NC[C@@H]2Cc2ccccc2)C(C)C)C(=N)N1CCCC1CCCC1")
"FALSE"
>>> group("CC(=O)n1cc([C@H]2C=C(C(=O)Nc3ccccc3)O[C@@H](OCCCCO)C2)c2ccccc21")
"FALSE"
>>> group("O=C(c1ccc(OCCN2CCCCC2)cc1)c1c(-c2ccc(O)cc2)sc2cc(O)ccc12 [RALOXIFENE HYDROCHLORIDE]")
"TRUE"
>>> group("NC1=NC[C@H](Cc2ccc(O)cc2)N1CCc1cccc2ccccc12")
"FALSE"
>>> group("CCOC(=O)c1c(CN2CCN(c3ccccc3)CC2)oc2ccc(O)cc12")
"FALSE"
>>> group("CCOC(=O)c1c(-c2ccccc2)oc2ccc(OCC(O)CNCCN(C)C)cc12 (centres undefined)")
"FALSE"
>>> group("N#Cc1ccc(OCC(=O)NNC(=S)NC(=O)C2CC2)cc1")
"TRUE"
>>> group("Cc1nc(N)sc1C(=O)N/N=C/c1c[nH]c2ccccc12")
"TRUE"
>>> group("COc1ccc(NS(=O)(=O)c2ccc(C)c(NC(=O)CN3C(=O)NC4(CCCC4)C3=O)c2)cc1")
"TRUE"

---

Target: Major prion protein (Homo sapiens)
Assay type: functional, cell-based
Calls of active or inactive are those of the source.
Outcomes: active, inactive

>>> group("CCOc1ccc(C(=O)C2=C(O)C(=O)N(c3ccccn3)C2c2ccc(F)cc2)c(C)c1 (stereo not given)")
"inactive"
>>> group("Sc1nc(Cc2ccc(Cl)cc2)nc2ccccc12")
"active"
>>> group("CCOC(=O)COc1cc(Br)c(/C=N/Nc2ccccc2)cc1OC")
"inactive"
>>> group("Cc1cnc(NC(=O)c2cc(S(=O)(=O)N(C)C)ccc2N2CCCC2)s1")
"active"
>>> group("CC(C)c1nc(SCC(=O)Nc2nc3c(s2)CCCC3)c2ccccc2n1")
"active"

---

Biological target: Eukaryotic translation initiation factor 4E (Mus musculus, UniProt P63073)
Sequence (P63073 whole entry): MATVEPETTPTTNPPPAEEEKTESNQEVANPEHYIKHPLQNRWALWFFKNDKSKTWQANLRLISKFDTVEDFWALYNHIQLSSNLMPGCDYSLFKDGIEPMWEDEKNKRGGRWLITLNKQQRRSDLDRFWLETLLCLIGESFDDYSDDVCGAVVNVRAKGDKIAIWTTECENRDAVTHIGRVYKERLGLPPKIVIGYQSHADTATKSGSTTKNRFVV
Experiment: eIF4E–eIF4G protein interaction inhibitors, dose response, biochemical, TR-FRET (AID 855);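 further: potency for disrupting eIF4E binding to eIF4GI seen as loss of FRET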
Assay type: functional
Active and inactive are the calls of the source.
Endpoint Name: IC50

>>> result("COc1cc(C(=O)NCc2ccc(C(=O)NCC(OC)OC)cc2)cc(OC)c1OC")
"50 µM (inactive)"
>>> result("CN(C)c1ncc(C2=C(Cl)C(=O)C(N3CCCC3)=C(Cl)C2=O)s1")
"> 64 µM (inactive)"
>>> result("Cc1ccc(Nc2nc3ccccc3nc2-n2nc(C)cc2C)cc1")
"> 64 µM (inactive)"
>>> result("COC(=O)CSc1nnc(-c2cccc(NC(=O)c3ccc(C)cc3)c2)n1C")
"> 64 µM (inactive)"

---

Molecular target: Replicative DNA helicase DnaB (Mycobacterium tuberculosis)
Assay: DnaB intein splicing inhibitors, dose response, biochemical, cell-free fluorescence (AID 449749)
Format: functional
Active and inactive are the calls of the source.
Outcomes: label 1 (active), label 0 (inactive)

>>> group("O=C1C(O)=C/C(=N\\c2ccccc2O)c2ccccc21")
"label 1"
>>> group("Nc1nc(C(=O)N2CCOCC2)nn1C(=O)c1ccc(Cl)cc1")
"label 1"
>>> group("O=C1C(Cl)=C(NCc2cccnc2)C(=O)c2ccccc21")
"label 1"
>>> group("Cc1ccc(N2C(=O)C(Cl)=C(N3CCOCC3)C2=O)c(C)c1")
"label 1"
>>> group("O=C(CNC(=O)C1COc2ccccc2O1)N/N=C\\c1ccccc1Cl (stereo not given)")
"label 1"
>>> group("O=C1C([N-]S(=O)(=O)c2cccs2)=C([n+]2ccccc2)C(=O)c2ccccc21")
"label 1"
>>> group("O=C(CCNc1cccc(F)c1)c1cccc([N+](=O)[O-])c1")
"label 0"
>>> group("Cc1ccc(Nc2cc(C)nn2-c2nc(C)cc(O)n2)cc1")
"label 1"
>>> group("Cc1[nH]n(C(C)(C)C)c(=O)c1Sc1ccccc1")
"label 1"
>>> group("COc1ccc2nc(SCC(=O)NN)cc(C)c2c1")
"label 1"
>>> group("Nc1cc(N)c(OCC(F)(F)F)cc1OCC(F)(F)F")
"label 1"
>>> group("Cc1noc(C)c1CSCC(=O)Oc1ccc(N(C)S(=O)(=O)c2ccc(Cl)cc2)cc1")
"label 1"
>>> group("CC(C)(C)c1csc(Sc2ccc([N+](=O)[O-])cn2)n1")
"label 1"
>>> group("CN(C)c1ncc(C2=C(Cl)C(=O)C(N3CCCC3)=C(Cl)C2=O)s1")
"label 0"

---

Parameter IC50: see the listing below.
Target: Carboxy-terminal domain RNA polymerase II polypeptide A small phosphatase 1 (Homo sapiens, UniProt Q9GZU7)
Sequence (Q9GZU7 whole entry): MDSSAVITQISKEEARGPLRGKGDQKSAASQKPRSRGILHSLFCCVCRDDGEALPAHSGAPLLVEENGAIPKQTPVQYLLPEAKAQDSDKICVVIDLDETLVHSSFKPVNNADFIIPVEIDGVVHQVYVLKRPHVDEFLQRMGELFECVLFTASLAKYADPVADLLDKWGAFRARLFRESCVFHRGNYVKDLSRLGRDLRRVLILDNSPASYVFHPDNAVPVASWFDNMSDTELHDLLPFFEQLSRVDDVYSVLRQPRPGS
Assay: inhibitors of CTDSP1, concentration-response testing, biochemical assay, absorbance-based, actives from ultra-high-throughput screening (AID 540297)
Assay type: functional
The source made the active and inactive calls.
Endpoint Name: IC50

>>> result("COc1ccc(S(=O)(=O)NNC(=O)Cc2csc(C)n2)cc1[N+](=O)[O-]")
"16.3 µM (active)"
>>> result("C[C@H](CCC(=O)O)[C@H]1CC[C@H]2[C@@H]3CC[C@@H]4C[C@H](O)CC[C@]4(C)[C@H]3CC[C@]12C")
"4.82 µM (active)"
>>> result("CCOc1ccc(C(=O)Nc2ccc(NC(=O)c3ccccc3)c(C)c2)cc1[N+](=O)[O-]")
"5.03 µM (active)"
>>> result("CC(=O)c1ccc(NC(=O)c2cccc(N3C(=O)c4ccccc4C3=O)c2)cc1")
"9.44 µM (active)"
>>> result("O=C1c2ccccc2C(=O)N1Nc1ccc([N+](=O)[O-])cc1[N+](=O)[O-]")
"16.9 µM (active)"
>>> result("CC[N+](CC)(CC)CCOc1ccc(/C=C/c2ccccc2)cc1 [STILONIUM IODIDE]")
"20.2 µM (active)"
>>> result("N#Cc1ccccc1CN1C(=O)S/C(=C/c2cccn2-c2cccc(C(=O)O)c2)C1=O")
"5.19 µM (active)"
>>> result("Cc1ccc(NC(=O)c2cc(-c3ccc(C)o3)nc3ccccc23)nc1")
"4.78 µM (active)"
>>> result("Cc1ccc2[nH]c(/C(C#N)=C/c3ccc(-c4cccc([N+](=O)[O-])c4)o3)nc2c1")
"6.06 µM (active)"
>>> result("COc1cc(/C=C2\\C(=N)N3N=C(S(C)(=O)=O)SC3=NC2=O)ccc1OCCOc1ccccc1C")
"3.51 µM (active)"

---

Target: Leucine aminopeptidase (Plasmodium falciparum 3D7)
Sequence (Q8IL11 whole entry): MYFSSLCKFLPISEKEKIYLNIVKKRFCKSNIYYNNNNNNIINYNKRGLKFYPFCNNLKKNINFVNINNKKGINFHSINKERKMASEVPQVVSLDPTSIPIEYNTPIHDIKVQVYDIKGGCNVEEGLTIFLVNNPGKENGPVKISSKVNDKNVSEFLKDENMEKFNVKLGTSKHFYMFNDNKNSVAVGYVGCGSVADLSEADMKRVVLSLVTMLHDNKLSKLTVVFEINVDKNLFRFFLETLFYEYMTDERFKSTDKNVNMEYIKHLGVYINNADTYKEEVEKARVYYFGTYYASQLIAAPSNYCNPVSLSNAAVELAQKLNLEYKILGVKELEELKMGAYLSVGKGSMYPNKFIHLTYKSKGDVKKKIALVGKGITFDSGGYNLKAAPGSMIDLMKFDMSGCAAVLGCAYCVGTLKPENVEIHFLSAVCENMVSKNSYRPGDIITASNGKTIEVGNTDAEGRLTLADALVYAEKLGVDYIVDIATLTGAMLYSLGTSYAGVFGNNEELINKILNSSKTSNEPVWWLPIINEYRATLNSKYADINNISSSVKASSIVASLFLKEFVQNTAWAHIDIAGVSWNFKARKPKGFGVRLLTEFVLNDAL
Assay: P. falciparum M17LAP inhibitors, primary screen, biochemical, fluorogenic H-Leu-NHMec substrate, 1536-well (AID 1619)
Format: functional
Calls of active or inactive are those of the source.
Entries annotated with measured IC50
Endpoint Name: IC50

>>> result("CCOC(=O)c1c(NC(=O)C2C3CCC(O3)C2C(=O)O)sc(C)c1-c1ccc(C)cc1 (stereo unspecified)")
"6.69 µM (active)"
>>> result("O=C(O)COc1ccc(/C=C/c2ccc3cccc([N+](=O)[O-])c3n2)cc1")
"23.2 µM (active)"
>>> result("O=C(O)c1cccc(Cn2c(Cl)c(/C=N/NC(=O)c3ccccc3Cl)sc2=O)c1")
"34.1 µM (active)"
>>> result("Cc1cccc(C(=O)NC(=S)NNC(=O)Cc2ccccc2)c1")
"56.6 µM (active)"
>>> result("S=c1[nH]c(-c2ccccc2)nn1-c1ccccc1")
"11.5 µM (active)"
>>> result("CCOC(=O)COc1ncn(-c2ccccc2)n1")
"13.9 µM (active)"
